Tested on: RAW264.7
Assay: Cytotoxicity against mouse RAW264.7 cells assessed a reduction in cell viability incubated for 24 hrs in absence of 10% FBS by MTT assay
Format: cell-based
Conditions: raw264.7, 24 h

smiles-code | Activity
Nc1cc(OC2CN(C(=O)c3ccc(S(=O)(=O)F)cc3)C2)ccn1 | Non-Toxic
Nc1ncnc2c1ncn2CCOC(=O)c1ccc(S(=O)(=O)F)cc1 | Non-Toxic
Cc1nc(N)c2cnn(C3CCN(Cc4ccc(S(=O)(=O)F)cc4)CC3)c2n1 | Non-Toxic

###

Target: Calmodulin-sensitive adenylate cyclase (Bacillus anthracis)
Experiment: Inactivation of Bacillus anthracis edema factor assessed as Kinact/Ki ratio in presence of CaM incubated for 10 to 240 mins by EnzChek pyrophosphate assay relative to FSBA
Decide by Ratio: equal to or exceeding 0.6 means 1, less means -1.

smiles-code | answer-label
Nc1ncnc2c1ncn2CCCNC(=O)c1ccc(S(=O)(=O)F)cc1 | -1
Nc1ncnc2c1cnn2C1CCN(C(=O)c2ccc(S(=O)(=O)F)cc2)CC1 | 1
Nc1cc(OCCCNCc2ccc(S(=O)(=O)F)cc2)ccn1 | -1

**Query** Is it the case that "Cc1nc(N)cc(OCCNC(=O)c2ccc(S(=O)(=O)F)cc2)n1" has Ratio reaching or exceeding 0.6?
**Result** 1

**Query** # check: Ratio of "Nc1cc(OC2CN(C(=O)c3ccc(S(=O)(=O)F)cc3)C2)ccn1" is greater than or equal to 0.6
**Result** -1

**Query** Textbook exercise: given the entry "Cc1nc(N)cc(OC2CCN(C(=O)c3ccc(S(=O)(=O)F)cc3)CC2)n1" , state whether its Ratio is greater than or equal to 0.6.
**Result** 1

**Query** Record "Nc1cc(OCc2ccc(S(=O)(=O)F)cc2)ccn1" ; criterion: Ratio no lower than 0.6. Met?
**Result** -1

**Query** Does "Cc1nc(N)c2cnn(C3CCN(C(=O)c4ccc(S(=O)(=O)F)cc4)CC3)c2n1" have a reported Ratio of at least 0.6?
**Result** 1

###

Assay: Stability in C57BL/6 mouse plasma assessed as half life at 10 uM by LC-MS method
Format: ADME, cell-free, C57B/6
Parameter: half-life at 10 µM. Scope: all listed entries.
Form entry: value (h) — number only.

response.value for "Nc1cc(OC2CCN(C(=O)c3ccc(S(=O)(=O)F)cc3)CC2)ccn1" (field: half-life at 10 µM) = 0.66

Given item "Cc1nc(N)c2cnn(C3CCN(Cc4ccc(S(=O)(=O)F)cc4)CC3)c2n1" , the value recorded as its half-life at 10 µM is 1.2

compound "Nc1ncnc2c1ccn2C1CCN(C(=O)c2ccc(S(=O)(=O)F)cc2)CC1" , half-life at 10 µM observed: 0.62

// sample "Cc1nc(N)c2cnn(C3CCN(C(=O)c4ccc(S(=O)(=O)F)cc4)CC3)c2n1" , its half-life at 10 µM was 1.2

Entry CCOC(=O)C1=C[C@]2(CC)CCCN3CCc4c(n1c1ccccc41)[C@@H]32 [VINPOCETINE] — recorded half-life at 10 µM = 13.1

###

Target: Calmodulin-sensitive adenylate cyclase (Bacillus anthracis) (UniProt P40136)
Sequence (whole entry): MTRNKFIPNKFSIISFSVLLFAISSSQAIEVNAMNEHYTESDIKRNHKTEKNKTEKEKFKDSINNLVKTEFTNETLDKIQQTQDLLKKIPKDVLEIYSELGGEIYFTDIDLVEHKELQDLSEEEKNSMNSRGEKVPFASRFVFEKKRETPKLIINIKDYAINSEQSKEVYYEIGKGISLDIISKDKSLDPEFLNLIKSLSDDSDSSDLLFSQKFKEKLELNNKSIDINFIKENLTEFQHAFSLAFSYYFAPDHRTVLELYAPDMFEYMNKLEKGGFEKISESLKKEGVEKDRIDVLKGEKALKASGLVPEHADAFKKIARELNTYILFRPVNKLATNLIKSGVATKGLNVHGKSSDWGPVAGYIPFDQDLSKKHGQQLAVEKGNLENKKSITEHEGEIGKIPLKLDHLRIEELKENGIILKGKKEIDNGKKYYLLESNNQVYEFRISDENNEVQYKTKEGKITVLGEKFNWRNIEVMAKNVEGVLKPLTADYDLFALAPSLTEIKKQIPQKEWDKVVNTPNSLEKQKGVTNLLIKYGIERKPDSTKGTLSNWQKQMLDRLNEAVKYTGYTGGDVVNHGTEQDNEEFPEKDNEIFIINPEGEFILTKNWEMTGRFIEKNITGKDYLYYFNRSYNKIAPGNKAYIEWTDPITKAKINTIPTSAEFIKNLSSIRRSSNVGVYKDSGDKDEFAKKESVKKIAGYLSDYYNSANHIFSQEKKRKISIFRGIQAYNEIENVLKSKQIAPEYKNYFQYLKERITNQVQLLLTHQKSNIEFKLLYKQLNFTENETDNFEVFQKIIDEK
Assay: Inactivation of Bacillus anthracis edema factor assessed as Kinact/Ki ratio in presence of CaM incubated for 10 to 240 mins by EnzChek pyrophosphate assay
reported-endpoint: Ratio
Respond with the number and no other words.

Illustrative cases are given below, each with its answer.
smiles-code | Ratio
Cc1nc(N)c2ccn(C3CCN(C(=O)c4ccc(S(=O)(=O)F)cc4)CC3)c2n1 | 3140
Nc1cc(OC2CN(C(=O)c3ccc(S(=O)(=O)F)cc3)C2)ccn1 | 4.9
Nc1ncnc2c1cnn2C1CCN(C(=O)c2ccc(S(=O)(=O)F)cc2)CC1 | 1160
Nc1ncnc2c1ncn2[C@@H]1CCCN(C(=O)c2ccc(S(=O)(=O)F)cc2)C1 | 6.7
Nc1cc(OCCNCc2ccc(S(=O)(=O)F)cc2)ccn1 | 9.6

Short answer for "Nc1ncnc2c1ncn2CCCNC(=O)c1ccc(S(=O)(=O)F)cc1" : Ratio was 5.3

The value of Ratio measured for the compound "Nc1ncnc2c1ncn2C1CCN(C(=O)c2ccc(S(=O)(=O)F)cc2)CC1" turned out to be 18

Entry "Cc1nc(N)cc(OC2CCN(C(=O)c3ccc(S(=O)(=O)F)cc3)CC2)n1" ; Ratio = 67.8

Measured Ratio of "Nc1ncnc2c1ncn2CCOC(=O)c1ccc(S(=O)(=O)F)cc1" : 6.9

###

System: RAW264.7
Experiment: Cytotoxicity against mouse RAW264.7 cells assessed a reduction in cell viability incubated for 24 hrs in presence of 10% FBS by MTT assay
Assay type: cell-based
Conditions: raw264.7, 24 h
reported-endpoint: CC50 (µM)
Field format: number, assumed µM, no unit text.

// molecule "Nc1cc(OCc2ccc(S(=O)(=O)F)cc2)ccn1" , assay RAW264.7, CC50 value: 86

###

Test: Stability in C57BL/6 mouse plasma assessed as assessed as parent compound remaining at 10 uM by LC-MS method
Assay type: ADME, cell-free, C57B/6
Conditions: read-out: Stability
reported-endpoint: remaining at 10 µM

The reported remaining at 10 µM of the molecule "Nc1ncnc2c1ccn2C1CCN(C(=O)c2ccc(S(=O)(=O)F)cc2)CC1" was < 5%

###

Target: Calmodulin-sensitive adenylate cyclase (Bacillus anthracis, UniProt P40136)
Sequence (P40136 whole entry): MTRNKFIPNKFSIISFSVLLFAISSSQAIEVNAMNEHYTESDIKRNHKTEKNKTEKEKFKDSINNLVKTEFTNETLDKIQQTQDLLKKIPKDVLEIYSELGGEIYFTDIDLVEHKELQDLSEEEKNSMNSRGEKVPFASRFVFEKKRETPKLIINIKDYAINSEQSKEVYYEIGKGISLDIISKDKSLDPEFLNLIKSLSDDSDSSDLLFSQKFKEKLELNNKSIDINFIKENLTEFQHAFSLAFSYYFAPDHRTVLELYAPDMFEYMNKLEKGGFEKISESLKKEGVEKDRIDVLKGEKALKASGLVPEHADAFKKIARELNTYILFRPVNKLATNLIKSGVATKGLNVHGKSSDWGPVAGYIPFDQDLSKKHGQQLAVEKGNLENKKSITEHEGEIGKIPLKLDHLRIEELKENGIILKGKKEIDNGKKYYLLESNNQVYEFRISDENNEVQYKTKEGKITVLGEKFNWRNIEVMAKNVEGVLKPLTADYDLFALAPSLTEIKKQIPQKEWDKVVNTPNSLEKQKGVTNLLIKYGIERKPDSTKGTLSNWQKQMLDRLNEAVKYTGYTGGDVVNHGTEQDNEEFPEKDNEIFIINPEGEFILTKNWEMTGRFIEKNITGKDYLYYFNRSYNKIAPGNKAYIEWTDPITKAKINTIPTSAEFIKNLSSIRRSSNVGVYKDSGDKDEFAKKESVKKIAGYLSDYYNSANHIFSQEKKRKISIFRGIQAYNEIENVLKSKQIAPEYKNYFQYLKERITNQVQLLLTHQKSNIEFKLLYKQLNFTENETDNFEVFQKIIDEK
Experiment: Inactivation of Bacillus anthracis edema factor in presence of CaM incubated for 10 to 240 mins by EnzChek pyrophosphate assay
reported-endpoint: Ki (µM)
Report only the number, with the unit µM understood.

smiles-code | reported-value
Nc1cc(OCc2ccc(S(=O)(=O)F)cc2)ccn1 | 955

Memo: "Cc1nc(N)c2cnn(CCCNC(=O)c3ccc(S(=O)(=O)F)cc3)c2n1" , reported Ki: 34.8

Measured Ki of "Cc1nc(N)c2cnn(C3CCN(C(=O)c4ccc(S(=O)(=O)F)cc4)CC3)c2n1" : 2.1

Ki reported for this molecule "Nc1ncnc2c1ncn2[C@@H]1O[C@H](COC(=O)c2ccc(S(=O)(=O)F)cc2)[C@@H](O)[C@H]1O" : 18.4

// Ki value for "Nc1cc(OCCNC(=O)c2ccc(S(=O)(=O)F)cc2)ccn1" : 127
